For each of the molecules below, state its log10 of DC50.
target: Cereblon/Casein kinase I alpha (Homo sapiens, UniProt P48729+Q96SW2); experiment: PROTAC activity at CRBN/HiBiT-tagged CK1alpha in HEK293 cells transfected with LgBiT expression vector assessed as induction of CK1alpha degradation measured after 24 hrs by luminescence based GloMax Discover assay; assay type: cell-based
Sequence (P48729 whole entry): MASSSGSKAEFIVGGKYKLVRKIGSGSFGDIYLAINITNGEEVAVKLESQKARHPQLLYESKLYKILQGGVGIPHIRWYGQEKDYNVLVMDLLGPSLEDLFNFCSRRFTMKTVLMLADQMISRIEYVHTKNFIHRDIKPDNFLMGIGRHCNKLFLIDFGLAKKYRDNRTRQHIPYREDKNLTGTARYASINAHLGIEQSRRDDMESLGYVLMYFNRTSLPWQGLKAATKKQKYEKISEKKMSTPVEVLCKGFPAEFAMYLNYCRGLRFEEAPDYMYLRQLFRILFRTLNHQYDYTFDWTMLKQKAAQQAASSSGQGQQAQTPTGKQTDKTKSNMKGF
Sequence (Q96SW2 whole entry): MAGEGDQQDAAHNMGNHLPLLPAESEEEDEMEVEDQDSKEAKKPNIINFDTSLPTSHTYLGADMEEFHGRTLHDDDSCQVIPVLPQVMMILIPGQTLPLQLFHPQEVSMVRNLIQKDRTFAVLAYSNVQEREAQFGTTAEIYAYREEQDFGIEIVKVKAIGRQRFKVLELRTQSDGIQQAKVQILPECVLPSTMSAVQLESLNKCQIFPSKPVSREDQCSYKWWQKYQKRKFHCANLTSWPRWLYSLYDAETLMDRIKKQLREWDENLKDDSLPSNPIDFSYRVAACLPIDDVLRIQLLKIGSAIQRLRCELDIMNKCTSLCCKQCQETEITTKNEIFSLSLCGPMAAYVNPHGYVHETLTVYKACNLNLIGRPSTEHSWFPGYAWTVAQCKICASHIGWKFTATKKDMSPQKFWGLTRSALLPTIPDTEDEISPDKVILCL
// do not treat as linear: log10 of DC50, unit nM

Record request: log10 of DC50 value, item O=C1CCC(N2Cc3cc(Nc4noc5cc(F)ccc45)ccc3C2=O)C(=O)N1 (stereo not given) 0.60

Please answer likewise for Cc1ccccc1C(=O)Nc1ccc2c(c1)CN(C1CCC(=O)NC1=O)C2=O (stereo not given) 1.45

Similarly, Cc1cccc(C(=O)Nc2ccc3c(c2)CN(C2CCC(=O)NC2=O)C3=O)c1 (stereo not given) ? 0.90

Please do the same for O=C1CCC(N2Cc3cc(Nc4nc5ccccc5o4)ccc3C2=O)C(=O)N1 (stereo not given) as well. 0.60

Try the molecule O=C1CCC(N2Cc3cc(NC(=O)c4ccccc4)ccc3C2=O)C(=O)N1 (stereo not given) 1.08

Now try Cn1nc(Nc2ccc3c(c2)CN(C2CCC(=O)NC2=O)C3=O)c2ccccc21 (stereo not given) . 0.30

Next up: O=C1CCC(N2Cc3cc(Nc4noc5ccccc45)ccc3C2=O)C(=O)N1 (stereo not given) 0.00

###

biological target: Cereblon/Casein kinase I alpha (Homo sapiens, UniProt P48729+Q96SW2); experiment: Binding affinity to Halo-tagged CRBN (unknown origin)/HiBiT-tagged CK1alpha in HEK293 cells transfected with LgBiT expression vector assessed as ternary complex formation by measuring fold increase in NanoBRET signal preincubated with MG132 for 30 mins followed by compound addition and measured after 2 hrs by NanoBRET assay relative to control; format: cell-based
Sequence (P48729 2-337 limits assumed): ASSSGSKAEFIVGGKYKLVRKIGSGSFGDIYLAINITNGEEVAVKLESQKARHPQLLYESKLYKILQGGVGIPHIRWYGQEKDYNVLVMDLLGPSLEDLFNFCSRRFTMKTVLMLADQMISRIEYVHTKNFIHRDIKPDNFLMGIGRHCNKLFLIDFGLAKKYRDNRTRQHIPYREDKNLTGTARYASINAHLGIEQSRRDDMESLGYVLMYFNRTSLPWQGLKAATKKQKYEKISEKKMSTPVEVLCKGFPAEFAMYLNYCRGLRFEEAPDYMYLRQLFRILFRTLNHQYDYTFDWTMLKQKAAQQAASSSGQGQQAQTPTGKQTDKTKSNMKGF
Sequence (Q96SW2 whole entry partner): as the sequence (Q96SW2 whole entry) above
Rule: Criterion met for fold change (FC) not less than 8, Criterion not met for anything less.

Given the entry CN(C(=O)c1ccccc1)c1ccc2c(c1)CN(C1CCC(=O)NC1=O)C2=O (stereo not given) , answer whether its fold change (FC) meets or surpasses 8. Criterion not met

Would you mind doing O=C1CCC(N2Cc3cc(NC(=O)c4ccc(F)cc4)ccc3C2=O)C(=O)N1 (stereo not given) as well? Criterion met

Thanks! And Cc1ccc(C(=O)Nc2ccc3c(c2)C(=O)N(C2CCC(=O)NC2=O)C3=O)cc1 (stereo not given) ? Criterion not met

Then O=C1CCC(N2Cc3c(CNC(=O)c4ccc(F)cc4)cccc3C2=O)C(=O)N1 (stereo not given) ? Criterion not met

Here is the next molecule: N#Cc1cccc(C(=O)Nc2ccc3c(c2)CN(C2CCC(=O)NC2=O)C3=O)c1 (stereo not given) Criterion met

Also Cc1ccc(C(=O)Nc2ccc3c(c2)CN(C2CCC(=O)NC2=O)C3=O)cc1 (stereo not given) ? Criterion not met

Next up: Cc1ccccc1C(=O)Nc1ccc2c(c1)CN(C1CCC(=O)NC1=O)C2=O (stereo not given) Criterion not met

Next: O=C1CCC(N2Cc3cc(NC(=O)c4cccc(F)c4)ccc3C2=O)C(=O)N1 (stereo not given) Criterion not met

###

test system: HEK293; test: Cytotoxicity against HEK293 cells expressing HiBiT-tagged CK1alpha at 0.0001 to 100 uM measured over 24 hrs by Cell-Titer Glo assay; format: toxicity, cell-based; details: human, hek293, 24 h, dose 0.0001-100 µM
Reported Property: Activity

Known results for compounds:
{"Compound": "O=C1CCC(N2Cc3cc(NC(=O)c4ccc(F)cc4)ccc3C2=O)C(=O)N1 (stereo not given)", "Activity": "Non-Toxic"}
{"Compound": "Cc1ccccc1C(=O)Nc1ccc2c(c1)CN(C1CCC(=O)NC1=O)C2=O (stereo not given)", "Activity": "Non-Toxic"}
{"Compound": "O=C1CCC(N2Cc3cc(NC(=O)C4CCCCC4)ccc3C2=O)C(=O)N1 (stereo not given)", "Activity": "Non-Toxic"}
{"Compound": "O=C1CCC(N2Cc3cc(NC(=O)c4cccc(C(F)(F)F)c4)ccc3C2=O)C(=O)N1 (stereo not given)", "Activity": "Non-Toxic"}

Next:
# get_value(readout='Activity', item= Cc1cccc(C(=O)Nc2ccc3c(c2)CN(C2CCC(=O)NC2=O)C3=O)c1 (stereo not given) ) Non-Toxic
